- Test system: single-stranded RNA: 5′-r(ACGAGAACAUCC)-3′ (SEQ ID NO: 11)
- assay_summary: Melting temperature (Tm) measurement, double strand-forming ability, with single-stranded RNA
- Format: binding
- condition_info: duplex with single-stranded RNA SEQ ID NO: 11; 10 mM phosphate buffer (pH7.0), 200 mM NaCl, 2.5 μM each oligonucleotide
- Procedure: A sample solution ([…]) with final concentrations of 10 mM phosphate buffer (pH7.0), 200 mM sodium chloride, and 2.5 μM each oligonucleotide was immersed in boiling water and slowly cooled to room temperature. […] The temperature was raised to 90° C. at a rate of 0.5° C. per minute, and the absorbance at 260 nm was plotted at intervals of 0.5° C. All Tm values were calculated by the midline method and the average of three independent measurement results was taken. […]
Field: Tm. Provide a value for each of the substances that follow.
A complete answer gives the number followed by the unit.

Some entries whose results are on file:
[
  {
    "substance": "5′-GGAZGZTCTCGT-3′: modified oligonucleotide with two separated Z modifications (DNA GGATGTTCTCGT; two Z modified nucleotides; misc_difference (4)..(4) ENA; misc_difference (6)..(6) ENA)",
    "reported_measurement": "65 °C"
  },
  {
    "substance": "5′-GGATGYYCTCGT-3′: modified oligonucleotide with two consecutive Y modifications (DNA GGATGTTCTCGT; two Y modified nucleotides; misc_difference (6)..(6) LNA; misc_difference (7)..(7) LNA)",
    "reported_measurement": "64 °C"
  },
  {
    "substance": "5′-GGAXGXTCTCGT-3′: modified oligonucleotide with two separated X modifications (DNA GGATGTTCTCGT; DNA oligonucleotide with modified nucleotide X, X not given here, further chemistry not given here)",
    "reported_measurement": "66 °C"
  },
  {
    "substance": "5′-GGATGXXCTCGT-3′: modified oligonucleotide with two consecutive X modifications (DNA GGATGTTCTCGT; DNA oligonucleotide with modified nucleotide X, X not given here, further chemistry not given here)",
    "reported_measurement": "66 °C"
  },
  {
    "substance": "5′-GGATGZTCTCGT-3′: modified oligonucleotide with one Z modification; Z not defined in the visible text (DNA GGATGTTCTCGT; Z modified nucleotide; misc_difference (6)..(6) ENA)",
    "reported_measurement": "58 °C"
  },
  {
    "substance": "5′-GGATGXTCTCGT-3′: modified oligonucleotide with one X modification; X not defined in the visible text (DNA GGATGTTCTCGT; DNA oligonucleotide with modified nucleotide X, X not given here, further chemistry not given here)",
    "reported_measurement": "58 °C"
  }
]

Field: next substance
### Prompt Returns the measured Tm for the input substance. Input: 5′-GGAYGYTCTCGT-3′: modified oligonucleotide with two separated Y modifications (DNA GGATGTTCTCGT; two Y modified nucleotides; misc_difference (4)..(4) LNA; misc_difference (6)..(6) LNA)
### Response 65 °C
